Each entry below lists one item and its recorded Kd value.
# TESTED TARGET: T1, hPRLR.mFc (soluble dimeric human PRLR) (human)
# T1 construct: dimeric PRLR construct
# T1 chain: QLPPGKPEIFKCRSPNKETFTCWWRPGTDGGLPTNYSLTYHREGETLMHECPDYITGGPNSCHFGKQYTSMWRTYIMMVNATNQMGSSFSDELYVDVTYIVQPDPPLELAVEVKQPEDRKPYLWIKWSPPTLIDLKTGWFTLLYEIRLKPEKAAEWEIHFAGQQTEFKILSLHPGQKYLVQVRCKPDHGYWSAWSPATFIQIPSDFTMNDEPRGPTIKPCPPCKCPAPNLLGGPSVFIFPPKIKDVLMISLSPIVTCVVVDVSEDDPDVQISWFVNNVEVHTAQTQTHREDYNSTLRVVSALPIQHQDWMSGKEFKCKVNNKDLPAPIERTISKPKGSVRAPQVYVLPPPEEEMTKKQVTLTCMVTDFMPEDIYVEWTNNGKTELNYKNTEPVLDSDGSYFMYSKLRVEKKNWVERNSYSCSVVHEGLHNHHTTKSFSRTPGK
# PROCEDURE DETAILS: SPR (Biacore), antibody capture, 37 C
METRIC: Kd (nM)

[[record]]
binder = "H1H6967N (antibody, human IgG1, V domains shown, also called H2M6967N) VH: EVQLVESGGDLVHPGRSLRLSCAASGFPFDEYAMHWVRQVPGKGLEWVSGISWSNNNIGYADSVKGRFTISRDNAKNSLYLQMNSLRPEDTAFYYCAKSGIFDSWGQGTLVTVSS VL: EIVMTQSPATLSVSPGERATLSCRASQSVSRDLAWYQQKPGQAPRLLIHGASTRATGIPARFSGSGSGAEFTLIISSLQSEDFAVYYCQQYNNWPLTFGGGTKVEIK"
metric = "Kd"
recorded_result = 0.107

[[record]]
binder = "H1H6975N (antibody, human IgG1, V domains shown, also called H2M6975N) VH: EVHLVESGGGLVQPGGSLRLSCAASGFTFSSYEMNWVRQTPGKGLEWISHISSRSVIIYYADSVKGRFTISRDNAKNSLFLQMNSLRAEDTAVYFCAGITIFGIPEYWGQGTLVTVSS VL: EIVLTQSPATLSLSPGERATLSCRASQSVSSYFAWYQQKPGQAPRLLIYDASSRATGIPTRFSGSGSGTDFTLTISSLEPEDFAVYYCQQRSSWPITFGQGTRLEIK"
metric = "Kd"
recorded_result = 0.184

[[record]]
binder = "H1H6797P (antibody, human IgG1, V domains shown, human IgG1 Fc (H1H)) VH: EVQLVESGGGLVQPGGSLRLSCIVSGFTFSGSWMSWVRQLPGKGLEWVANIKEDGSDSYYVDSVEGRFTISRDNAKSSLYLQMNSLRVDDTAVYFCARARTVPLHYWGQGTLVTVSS VL: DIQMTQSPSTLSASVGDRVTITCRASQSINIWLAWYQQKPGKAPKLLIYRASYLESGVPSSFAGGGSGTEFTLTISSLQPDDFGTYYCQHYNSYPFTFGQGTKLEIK"
metric = "Kd"
recorded_result = 0.0691

